These measurements were taken from patent US20140005163A1.

Test protocol: Solubility at pH 6.8
Type: physicochemical
Reported conditions: pH 6.8, aqueous buffer, thermodynamic from solid; read-out: solubility
Measure: solubility (µg/mL)
One number for each entry, in µg/mL.

| Compound | Measured |
| --- | --- |
| Cc1nn(C)cc1-n1c(=O)n(C)c2cnc3ccc(-c4ccc(N5CCC5)nc4)cc3c21 [Example 5.1] | 3 |
| COc1ncc(-c2ccc3ncc4c(c3c2)n(-c2cn(C)nc2C)c(=O)n4C)cn1 [Example 17.2] | 32 |
| Cc1nn(C)cc1-n1c(=O)n(C)c2cnc3ccc(-c4cccc(S(=O)(=O)N(C)C)c4)cc3c21 [Example 53.1] | 3 |
| Cc1nn(C)cc1-n1c(=O)n(C)c2cnc3ccc(-c4cncc(OC(CF)CF)c4)cc3c21 [Example 182] | 56 |
| Cc1nn(C)cc1-n1c(=O)n(C)c2cnc3ccc(-c4cnc(N(C)C)nc4)cc3c21 [Example 6.2] | 41 |

Record solubility for all entries; do not skip any.
1. Cc1cc(-n2c(=O)n(C)c3cnc4ccc(-c5ccc(C(F)(F)F)nc5)cc4c32)n(C)n1 [Example 8.2]
2. Cc1nn(CC(=O)N(C)C)c(C)c1-n1c(=O)n(C)c2cnc3ccc(-c4ccc(-n5cccn5)cc4)cc3c21 [Example 51.4]

1. 4
2. 11

----------
System: PKB Ser473 phosphorylation in Rat1-myr-HA-p110 alpha cells
Test protocol: Reverse protein array assay, PKB Ser473 phosphorylation in Rat1-myr-p110 alpha cells
Format: cell-based
Reported conditions: 0.5 h, pAkt Ser473, 30 minutes compound incubation, read-out: p-PKB IC50
Measure: IC50

Before answering, review these 4 worked examples.
| Compound | IC50 |
| --- | --- |
| COc1ncc(-c2ccc3ncc4c(c3c2)n(-c2cn(C)nc2C)c(=O)n4C)cc1[N+](=O)[O-] [Example 66] | 96 nM |
| CNc1ncc(-c2ccc3ncc4c(c3c2)n(-c2cn(C(C)C)nc2C)c(=O)n4C)cc1CO [Example 171] | 9 nM |
| COCc1cc(-c2ccc3ncc4c(c3c2)n(-c2cn(C)nc2Cl)c(=O)n4C)cnc1OC [Example 201] | 12 nM |
| COCCOc1ccc(-c2ccc3ncc4c(c3c2)n(-c2cn(C)nc2C)c(=O)n4C)cn1 [Example 18] | 139 nM |

Now look at this one.
Summary for this compound, CNc1ccc(-c2ccc3ncc4c(c3c2)n(-c2cn(C)nc2Cl)c(=O)n4C)cn1 [Example 118.5] : IC50 is < 5 nM

----------
Give measured IC50 for each item. Keep answers brief.
Target: PI3K alpha (Homo sapiens, UniProt P42336)
Construct: p85(iSH2) fusion partner (see partner chain) (N); His tag (C); Tn5 (Trichoplusia ni) or TiniPro insect cells
Sequence (P42336 with tags, fused parts or gaps limits assumed): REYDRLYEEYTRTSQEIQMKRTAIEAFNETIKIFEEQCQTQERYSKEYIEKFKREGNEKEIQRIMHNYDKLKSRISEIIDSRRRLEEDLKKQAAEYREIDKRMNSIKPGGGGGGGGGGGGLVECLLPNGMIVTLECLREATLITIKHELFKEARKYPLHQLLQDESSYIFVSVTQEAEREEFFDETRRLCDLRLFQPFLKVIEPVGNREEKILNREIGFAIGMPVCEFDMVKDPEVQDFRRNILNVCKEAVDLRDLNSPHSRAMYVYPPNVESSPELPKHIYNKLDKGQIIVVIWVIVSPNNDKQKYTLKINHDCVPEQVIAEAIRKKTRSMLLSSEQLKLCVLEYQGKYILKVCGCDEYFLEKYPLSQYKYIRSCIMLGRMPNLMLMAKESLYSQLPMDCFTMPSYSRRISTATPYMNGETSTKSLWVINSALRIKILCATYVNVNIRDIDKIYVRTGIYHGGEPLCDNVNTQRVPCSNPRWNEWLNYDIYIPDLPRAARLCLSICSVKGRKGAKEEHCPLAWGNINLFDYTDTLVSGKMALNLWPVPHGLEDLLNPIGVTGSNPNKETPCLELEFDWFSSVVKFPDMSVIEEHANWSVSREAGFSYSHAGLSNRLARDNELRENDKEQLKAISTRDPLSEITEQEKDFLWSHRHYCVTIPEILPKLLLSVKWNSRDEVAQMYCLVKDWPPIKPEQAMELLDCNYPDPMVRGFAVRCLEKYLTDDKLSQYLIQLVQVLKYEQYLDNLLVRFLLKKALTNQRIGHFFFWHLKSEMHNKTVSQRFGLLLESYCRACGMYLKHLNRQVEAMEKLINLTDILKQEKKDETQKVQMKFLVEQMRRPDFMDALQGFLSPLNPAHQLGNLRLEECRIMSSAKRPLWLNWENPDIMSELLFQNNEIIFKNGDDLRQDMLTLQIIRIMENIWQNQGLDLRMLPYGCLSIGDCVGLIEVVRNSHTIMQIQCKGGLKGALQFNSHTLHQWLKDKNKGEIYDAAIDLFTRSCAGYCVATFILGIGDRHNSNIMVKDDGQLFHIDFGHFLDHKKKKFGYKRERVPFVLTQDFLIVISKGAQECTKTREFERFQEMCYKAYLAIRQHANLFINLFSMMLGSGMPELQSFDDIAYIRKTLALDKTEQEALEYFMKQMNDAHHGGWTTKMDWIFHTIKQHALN
Test protocol: PI3K alpha kinase assay (Kinase-Glo luminescence)
Give bare numbers, in nM.

Before answering, review these 2 worked examples.
| Compound | Measured |
| --- | --- |
| CNC(=O)c1ccc(-c2ccc3ncc4c(c3c2)n(-c2cn(C)nc2C)c(=O)n4C)cn1 [Example 15.1] | 16 |
| CNc1ncc(-c2ccc3ncc4c(c3c2)n(-c2cn(C(C)C)nc2C)c(=O)n4C)cc1CO [Example 171] | 32 |

Record IC50 for all entries; do not skip any.
1. Cc1nn(C)cc1-n1c(=O)n(C)c2cnc3ccc(-c4ccccc4)cc3c21 [Example 37.1]
2. Cc1nn(C)cc1-n1c(=S)n(C)c2cnc3ccc(-c4cccnc4)cc3c21 [Example 128.1]

1: 34; 2: 11

Record IC50 for all entries; do not skip any.
1. CNC(=O)c1ccc(-c2ccc3ncc4c(c3c2)n(-c2cn(C(C)C)nc2C)c(=O)n4C)cn1 [Example 15.3]
2. CCOc1cc(-c2ccc3ncc4c(c3c2)n(-c2c(C)nn(C)c2C)c(=O)n4C)ccc1OC [Example 28.2]
3. COc1ncc(-c2ccc3ncc4c(c3c2)n(-c2cn(C)nc2C)c(=O)n4C)cc1N [Example 127]
4. CCn1cc(-n2c(=O)n(C)c3cnc4ccc(-c5ccc(CO)nc5)cc4c32)c(C)n1 [Example 16.1]
5. COc1ccc(-c2ccc3ncc4c(c3n2)n(-c2cc(C)nn2C)c(=O)n4C)cc1OC [Example 253]
6. CCNc1cc(-c2ccc3ncc4c(c3c2)n(-c2c(C)nn(C)c2C)c(=O)n4C)cnc1F [Example 154.1]
7. COc1cc(-c2ccc3ncc4c(c3c2)n(-c2c(C)nn(C)c2C)c(=O)n4C)ccc1O [Example 31]

1. 123
2. 62
3. 20
4. 33
5. 4
6. 157
7. 29

Record IC50 for all entries; do not skip any.
1. Cc1cc(-n2c(=O)n(C)c3cnc4ccc(-c5cnc(N)c(C(F)(F)F)c5)cc4c32)n(C)n1 [Example 25.6]
2. CCOc1ccc(-c2ccc3ncc4[nH]c(=O)n(-c5cn(C)nc5C)c4c3c2)cn1 [Example 110]
3. CCn1cc(-n2c(=O)n(C)c3cnc4ccc(-c5cncc(N)c5)cc4c32)c(C)n1 [Example 45.2]

1. 41
2. 5
3. 74
